Every entry's value here was drawn from ChEMBL document CHEMBL1148703.

test system: Human alphaherpesvirus 3; assay: Antiviral activity against TK+ VZV YS in HEL cells assessed as reduction of virus plaque formation after 5 days; type: functional, organism-based; conditions: Human alphaherpesvirus 3, YS, 120 h
pEC50: −log10 of the molar value.
Listed next: entries and their corresponding pEC50.
Measurement kind: pEC50

> print(dat)
                               smiles.entry  measurement.kind  meas.value
1  CCCCCCc1ccc(-c2cc3cn([C@H]4C[C@H](O)[C@@H](CO)O4)c(=O)nc3o2)nc1             pEC50        7.35
2  CCCCCCCCCCc1cc2cn([C@H]3C[C@H](O)[C@@H](CO)O3)c(=O)nc2o1             pEC50        7.18
3  CCCCCc1ccc(-c2cc3cn([C@H]4C[C@H](O)[C@@H](CO)O4)c(=O)nc3o2)cn1             pEC50        7.05
4  Cc1ccc(C#Cc2cc3cn([C@H]4C[C@H](O)[C@@H](CO)O4)c(=O)nc3o2)cc1             pEC50        4.39
5  CCCCCCc1ccc(-c2cc3cn([C@H]4C[C@H](O)[C@@H](CO)O4)c(=O)nc3o2)cn1             pEC50        7.05
6  O=c1[nH]c(=O)n([C@H]2C[C@H](O)[C@@H](CO)O2)cc1/C=C/Br             pEC50        8.00
7  CCCCCc1cnc(-c2cc3cn([C@H]4C[C@H](O)[C@@H](CO)O4)c(=O)nc3o2)nc1             pEC50        5.70
8  CCCCCCc1cnc(-c2cc3cn([C@H]4C[C@H](O)[C@@H](CO)O4)c(=O)nc3o2)nc1             pEC50        6.15
9  CCCCCCCC/C=C/c1cc2cn([C@H]3C[C@H](O)[C@@H](CO)O3)c(=O)nc2o1             pEC50        6.14

###

target: Thymidine kinase (Varicella-zoster virus (strain Dumas) (HHV-3) (Human herpesvirus 3)); test: Inhibition of VZV thymidine kinase
Sequence (P09250 whole entry): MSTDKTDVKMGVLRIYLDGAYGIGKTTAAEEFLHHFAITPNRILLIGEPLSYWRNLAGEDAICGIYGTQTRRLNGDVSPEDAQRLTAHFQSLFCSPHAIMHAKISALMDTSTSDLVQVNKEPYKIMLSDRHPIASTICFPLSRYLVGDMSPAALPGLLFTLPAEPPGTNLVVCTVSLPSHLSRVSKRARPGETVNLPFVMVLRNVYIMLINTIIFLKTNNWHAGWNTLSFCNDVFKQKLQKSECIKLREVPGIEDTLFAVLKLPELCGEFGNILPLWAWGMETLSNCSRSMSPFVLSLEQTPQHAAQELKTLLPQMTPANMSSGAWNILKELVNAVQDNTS
pIC50: −log10 of the molar value.
Listed next: entries and their corresponding pIC50.
Measurement kind: pIC50

> print(dat)
                               smiles.entry  meas.value
1  CCCCCCc1ccc(-c2cc3cn([C@H]4C[C@H](O)[C@@H](CO)O4)c(=O)nc3o2)cn1        4.52
2  CCCCCc1ccc(-c2cc3cn([C@H]4C[C@H](O)[C@@H](CO)O4)c(=O)nc3o2)nc1        5.38
3  CCCCc1ccc(-c2cc3cn([C@H]4C[C@H](O)[C@@H](CO)O4)c(=O)nc3o2)nc1        4.47

###

assay: Cytotoxicity against HEL cells assessed as alteration in cell morphology after 3 days; assay type: cell-based; settings: human
Listed next: entries and their corresponding MCC at 72 h.
Measurement kind: MCC at 72 h

> print(dat)
                               smiles.entry  meas.value
1  O=c1[nH]c(=O)n([C@H]2C[C@H](O)[C@@H](CO)O2)cc1/C=C/Br    > 150 µM
2  CCCCCCc1ccc(-c2cc3cn([C@H]4C[C@H](O)[C@@H](CO)O4)c(=O)nc3o2)nc1    > 100 µM
3  CCCCCc1ccc(C#Cc2cc3cn([C@H]4C[C@H](O)[C@@H](CO)O4)c(=O)nc3o2)cc1      470 µM
4  CCCC#Cc1ccc(-c2cc3cn([C@H]4C[C@H](O)[C@@H](CO)O4)c(=O)nc3o2)cn1    ≥ 100 µM
5  CCCCCCCCCCc1cc2cn([C@H]3C[C@H](O)[C@@H](CO)O3)c(=O)nc2o1    ≥ 130 µM
6  CCCCCc1ccc(-c2cc3cn([C@H]4C[C@H](O)[C@@H](CO)O4)c(=O)nc3o2)cn1      100 µM
7  CCCCCc1ccc(-c2cc3cn([C@H]4C[C@H](O)[C@@H](CO)O4)c(=O)nc3o2)nc1    > 100 µM
8  CCCCCCc1ccc(-c2cc3cn([C@H]4C[C@H](O)[C@@H](CO)O4)c(=O)nc3o2)cn1      100 µM

###

Listed next: entries and their corresponding CC50 at 72 h.
assay: Cytotoxicity against HEL cells after 3 days; assay type: cell-based; conditions: human
Measurement kind: CC50 at 72 h

> print(dat)
                               smiles.entry  measurement.kind  meas.value
1  CCCCCc1ccc(-c2cc3cn([C@H]4C[C@H](O)[C@@H](CO)O4)c(=O)nc3o2)cn1      CC50 at 72 h     > 50 µM
2  Cc1ccc(C#Cc2cc3cn([C@H]4C[C@H](O)[C@@H](CO)O4)c(=O)nc3o2)cc1      CC50 at 72 h      510 µM
3              Nc1nc2c(ncn2COCCO)c(=O)[nH]1      CC50 at 72 h    > 890 µM
